System: CETP
Assay: Inhibitory effect exo vivo on CETP activity in total plasma of normal hamster
Settings: single oral dose 10 mg/kg, blood taken 2 hr after administration, average values
Experimental: Potassium bromide (KBr) was added to plasma (40 mL) of healthy subject and the mixture was adjusted to have a specific density d=1.125 g/mL. […] The compound of the present invention was suspended in 0.5% methyl cellulose solution and orally administered once to a healthy hamster with a plastic gavage needle. Blood was taken at 2 or 4 hr after the administration and CETP activity in plasma was measured according to the following method. […]
Answer each item with its documented CETP activity (%) 2 (hr later).

Past entries and their recorded results:
CCN(C[C@H]1CC[C@H](C(=O)O)CC1)c1ccc(OC(F)(F)F)cc1CN(Cc1cc(C(F)(F)F)cc(C(F)(F)F)c1)c1nnn(C)n1.Cl :: 43.3%
CCN(CCCCCC(=O)O)c1cc2c(cc1CN(Cc1cc(C(F)(F)F)cc(C(F)(F)F)c1)c1nnn(C)n1)CCC2.Cl :: 44.7%

Please turn your attention to the following entry.
Prompt: What value of CETP activity (%) 2 (hr later) has been reported for the following compound? `CCN(CCCCC(=O)O)c1ccc(OC(F)(F)F)cc1CN(Cc1cc(C(F)(F)F)cc(C(F)(F)F)c1)c1nnn(C)n1.Cl`
Completion: 77.7%

---

Molecular target: CETP (Homo sapiens, UniProt P11597)
Construct: The donor lipoprotein obtained above was added to plasma of healthy subject
Sequence (P11597 18-493): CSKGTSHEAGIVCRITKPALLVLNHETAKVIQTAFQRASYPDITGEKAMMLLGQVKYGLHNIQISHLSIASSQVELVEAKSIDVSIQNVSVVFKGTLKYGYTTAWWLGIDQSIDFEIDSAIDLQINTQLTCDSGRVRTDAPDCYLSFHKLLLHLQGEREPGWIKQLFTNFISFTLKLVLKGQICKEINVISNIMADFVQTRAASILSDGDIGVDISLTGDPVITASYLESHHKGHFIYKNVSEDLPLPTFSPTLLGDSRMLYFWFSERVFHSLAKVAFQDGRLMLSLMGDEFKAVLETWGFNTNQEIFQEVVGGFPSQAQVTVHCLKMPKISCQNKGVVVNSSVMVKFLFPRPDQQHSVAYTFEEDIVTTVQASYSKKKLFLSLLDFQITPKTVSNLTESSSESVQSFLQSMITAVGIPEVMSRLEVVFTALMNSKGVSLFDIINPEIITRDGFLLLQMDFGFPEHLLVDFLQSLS
Assay: Inhibitory effect in vitro on CETP activity in total plasma
Details: plasma of healthy subject with [3H]CE-HDL3, 37° C., 4 hr; average values
Structures can show the parent of a compound that is named as a salt.
Answer each item with its documented pIC50.
One number for each entry, as −log10 of the molar value.

Past entries and their recorded results:
CCN(C[C@H]1CC[C@H](CCO)CC1)c1ccc(OC(F)(F)F)cc1CN(Cc1cc(C(F)(F)F)cc(C(F)(F)F)c1)c1nnn(C)n1 [Example 140, hydrochloride] :: 6.92
CCN(CCCCCC(=O)O)c1cc2c(cc1CN(Cc1cc(C(F)(F)F)cc(C(F)(F)F)c1)c1nnn(C)n1)CCC2.Cl [Example 91, hydrochloride] :: 6.25
CCN(C[C@H]1CC[C@H](C(=O)O)CC1)c1cc2c(cc1CN(Cc1cc(C#N)cc(C(F)(F)F)c1)c1ncn(C)n1)CCCC2 :: 6.27
CCN(CCC(C)(C)CC(=O)O)c1cc2c(cc1CN(Cc1cc(C(F)(F)F)cc(C(F)(F)F)c1)c1ccn(C)n1)CCC2 :: 6.23
CCN(C[C@H]1CC[C@H](CCC(=O)O)CC1)c1ccc(OC(F)(F)F)cc1CN(Cc1cc(C(F)(F)F)cc(C(F)(F)F)c1)c1nnn(C)n1 [Example 135, hydrochloride] :: 6.66

State recorded pIC50 for all listed compounds.
1. CCN(C[C@H]1CC[C@H](C(=O)O)CC1)c1cc2c(cc1CN(Cc1cc(C(F)(F)F)cc(C(F)(F)F)c1)c1cc(C)no1)CCCC2 [Example 71, hydrochloride]
2. CCN(CCC(C)(C)CC(=O)O)c1ccc(OC(F)(F)F)cc1CN(Cc1cc(C(F)(F)F)cc(C(F)(F)F)c1)c1nnn(C)n1 [Example 104, hydrochloride]
3. CCN(C[C@H]1CC[C@H](C(=O)O)CC1)c1cc2c(cc1CN(Cc1cc(C(F)(F)F)cc(C(F)(F)F)c1)c1cc(C)no1)CCC2 [Example 53, hydrochloride]

Completion:
6.36
6.46
6.15

---

target: CETP (Homo sapiens); construct: The donor lipoprotein obtained above was added to plasma of healthy subject; assay: Inhibitory effect in vitro on CETP activity in total plasma; conditions: plasma of healthy subject with [3H]CE-HDL3, 37° C., 4 hr; average values
Structures can show the parent of a compound that is named as a salt.
quantity-kind: pIC50
Answers are plain numbers, as −log10 of the molar value.

Past entries and their recorded results:
CCN(CC1CCCC1)c1cc2c(cc1CN(Cc1cc(C(F)(F)F)cc(C(F)(F)F)c1)c1nnn(C)n1)CCCC2 :: 6.64
CCN(C[C@H]1CC[C@H](CC(=O)O)CC1)c1ccc(C(F)(F)F)cc1CN(Cc1cc(C(F)(F)F)cc(C(F)(F)F)c1)c1nnn(C)n1.Cl [Example 118, hydrochloride] :: 7.05

State recorded pIC50 for all listed molecules.
1. CCN(C[C@H]1CC[C@H](C(=O)O)CC1)c1ccc(OC(F)(F)F)cc1CN(Cc1cc(Cl)cc(Cl)c1)c1nnn(C)n1 [Example 129, hydrochloride]
2. CCN(C[C@H]1CC[C@H](C(=O)O)CC1)c1cc2c(cc1CN(Cc1cc(C(F)(F)F)cc(C(F)(F)F)c1)c1nnn(CC)n1)CCC2 [Example 93, hydrochloride]
3. CCN(CC(C)(C)CCCC(=O)O)c1cc2c(cc1CN(Cc1cc(C(F)(F)F)cc(C(F)(F)F)c1)c1nnn(C)n1)CCC2 [Example 120, hydrochloride]
4. CCN(C[C@H]1CC[C@H](C(=O)O)CC1)c1ccc(OC(F)(F)F)cc1CN(Cc1cc(C(F)(F)F)cc(C(F)(F)F)c1)c1ccc(C)cc1 [Example 127, hydrochloride]
5. CCN(CCCCC(=O)OC)c1cc2c(cc1CN(Cc1cc(C(F)(F)F)cc(C(F)(F)F)c1)c1ccn(C)n1)CCC2.Cl [Example 37, hydrochloride]
6. CCN(CCCCC(=O)OC)c1cc2c(cc1CN(Cc1cc(C#N)cc(C(F)(F)F)c1)c1nnn(C)n1)CCC2.Cl [Example 36, hydrochloride]
7. CCN(CCC(C)(C)CC(=O)O)c1ccc(OC(F)(F)F)cc1CN(Cc1cc(C(F)(F)F)cc(C(F)(F)F)c1)c1ccn(C)n1.Cl [Example 107, hydrochloride]
8. CCN(C[C@H]1CC[C@H](CC(=O)O)CC1)c1cc2c(cc1CN(Cc1cc(C(F)(F)F)cc(C(F)(F)F)c1)c1nnn(C)n1)CCC2 [Example 111, hydrochloride]

Completion:
1: 6.21; 2: 6.12; 3: 6.55; 4: 6.43; 5: 6.10; 6: 6.47; 7: 6.25; 8: 6.72

State recorded pIC50 for all listed molecules.
1. CCN(CCCCC(=O)O)c1ccc(OC(F)(F)F)cc1CN(Cc1cc(C(F)(F)F)cc(C(F)(F)F)c1)c1nnn(C)n1.Cl [Example 89, hydrochloride]
2. CCN(C[C@H]1CC[C@H](C(=O)O)CC1)c1cc2c(cc1CN(Cc1cc(C(F)(F)F)cc(C(F)(F)F)c1)c1nnn(C)n1)CCC2 [Example 51, hydrochloride]
3. CCN(CCCCC(=O)O)c1cc2c(cc1CN(Cc1cc(C(F)(F)F)cc(C(F)(F)F)c1)c1noc(C)n1)CCC2 [Example 8, hydrochloride]
4. CCN(CC1CCCC1)c1cc2c(cc1CN(Cc1cc(C(F)(F)F)cc(C(F)(F)F)c1)c1cc(C)no1)CCC2 [Example 26, hydrochloride]

Completion:
[6.16, 6.39, 6.20, 6.33]

State recorded pIC50 for all listed molecules.
1. CCN(C[C@H]1CC[C@H](C(=O)O)CC1)c1cc2c(cc1CN(Cc1cc(C#N)cc(C(F)(F)F)c1)c1nnn(C)n1)CCCC2 [Example 68, hydrochloride]
2. CCN(C[C@H]1CC[C@H](CO)CC1)c1cc(C(F)(F)F)c(C)cc1CN(Cc1cc(C(F)(F)F)cc(C(F)(F)F)c1)c1nnn(C)n1 [Example 141, hydrochloride]
3. CCN(CCCCC(=O)O)c1cc2c(cc1CN(Cc1cc(C(F)(F)F)cc(C(F)(F)F)c1)c1cc(C)no1)CCC2.Cl [Example 40, hydrochloride]
4. CCN(CCCCC(=O)OC)c1cc2c(cc1CN(Cc1cc(C(F)(F)F)cc(C(F)(F)F)c1)c1ncn(C)n1)CCCC2 [Example 74, hydrochloride]
5. CCN(CC(C)(C)CCC(=O)O)c1cc2c(cc1CN(Cc1cc(C(F)(F)F)cc(C(F)(F)F)c1)c1nnn(C)n1)CCC2 [Example 114, hydrochloride]

Completion:
6.55
6.92
6.41
6.40
6.55
